Source of measurements: the C3SDB collision cross section collection

Settings: [M+H]+; instrument: TW; calibrated with polyalanine and drug standards
metricName: collision cross section (N2) (Å²)

CCCCC1C(=O)N(c2ccccc2)N(c2ccc(O)cc2)C1=O (stereo not drawn) ... 177.2

I = CC[C@H]1OC(=O)[C@H](C)[C@@H](O[C@H]2C[C@@](C)(OC)[C@@H](O)[C@H](C)O2)[C@H](C)[C@@H](O[C@@H]2O[C@H](C)C[C@H](N(C)C)[C@H]2O)[C@](C)(O)C[C@@H](C)[C@@H]2N[C@@H](COCCOC)O[C@H]([C@H]2C)[C@]1(C)O
II = CC(C)(c1ccc(O)cc1)c1ccc(O)cc1
Problem: // returns I or II , whichever has the lower collision cross section (N2) Your answer should be the label of the entry you select.
Result: II

---

Settings: [M+Na]+; instrument: TW; calibrated with phosphatidylcholines (ESI+) and phosphatidylethanolamines (ESI-)
metricName: collision cross section (N2) (Å²)

CC/C=C\C/C=C\C/C=C\C/C=C\CCCCC(=O)O[C@H](COC(=O)CCCCCCCCCCC/C=C\C/C=C\CCCCC)COP(=O)(O)OC[C@@H](O)CO ... 290
CCCCCCCCCCCCC=CC[C@@H](O)[C@H](CO[C@@H]1O[C@H](CO)[C@@H](O)C(O)C1O)NC(=O)CC=CCCCCCCCCCCCCCCCCCCCC (some centres not stated) ... 297.3
CCCCCCCCCCCCCCCCC(=O)O[C@H](COC(=O)CCCCCCCCCCCCCC)COP(=O)(O)OC[C@@H](O)CO ... 277.3
CCCC/C=C\CCCCCCCC(=O)OC[C@H](COP(=O)(O)OC[C@@H](O)CO)OC(=O)CCCCCCCCCCC/C=C\C/C=C\CCCCC ... 282
CCCCCCCCCC/C=C\CCCCCCCCCC(=O)O[C@H](COC(=O)CCCCCCCCCCCCC)COP(=O)(O)O[C@H]1C(O)C(O)C(O)[C@@H](O)C1O (some centres not stated) ... 297.2
CCCC/C=C\C/C=C\CCCCCCCC(=O)O[C@H](COC(=O)CCCCCCC/C=C\CCCCCCCCC)COP(=O)(O)O[C@H]1C(O)C(O)C(O)[C@@H](O)C1O (some centres not stated) ... 291.1
CCCCC/C=C\C/C=C\CCCCCCCCCCCC(=O)O[C@H](COC(=O)CCCCCCCCCCC)COP(=O)(O)OC[C@@H](O)CO ... 278.2

---

Details: [M-H]-; instrument: DT; stepped-field
metricName: collision cross section (N2) (Å²)

Reference set, count: 3
CCCCCCCCCCCCCCCCC(=O)O[C@H](COC(=O)CCCCCCCCCCCCCC)COP(=O)(O)OC[C@@H](O)CO ... 270.3
CCCC/C=C\CCCCCCCC(=O)OC[C@H](COP(=O)(O)OC[C@H](N)C(=O)O)OC(=O)CCCCCCC/C=C\CCCCCCCC ... 270.6
CCCCCCCCCCCCCCCCCC(=O)OC[C@@H](O)COP(=O)(O)OC[C@@H](O)CO ... 221.9

a = CCCCC/C=C\C/C=C\CCCCCCCCCCCC(=O)O[C@H](COC(=O)CCCCCCC/C=C\CCCCCCCC)COP(=O)(O)OC[C@H](N)C(=O)O
b = CCCCCCCCCCCCCCCCCC(=O)O[C@H](CO)COP(=O)(O)O
Problem: Kindly identify the item with the lower collision cross section (N2) figure among these two: a and b Pick one; state its label.
Result: b
(b: 206.2 Å², a: 299 Å²)
